- assay_system: Guanine nucleotide-binding protein G(i) subunit alpha-1 (Homo sapiens)
- experiment_description: qHTS Assay for Inhibitors of RGS12 GoLoco Motif Activity (Green Fluorophore) (AID 879);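 note: negative values mean loss of peptide binding seen as reduced polarization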
- reported_conditions: Galphai1/FITC-RGS12 GoLoco peptide, fluorescence polarization; series mostly up to 57.1 µM
- Text: Assay Overview: NIH Molecular Libraries Screening Centers Network [MLSCN] NIH Chemical Genomics Center [NCGC] MLSCN Grant: NS053754-01 Assay Provider: Siderovski, David P, University of North Carolina at Chapel Hill G-protein-coupled receptors (GPCRs) are major targets for drug discovery. […] Inhibitors of the binding are detected by a decrease in the fluorescence polarization (FP) of the fluorophore. […]
Active and inactive are the calls of the source. Calls come from the whole dose curve; as a rule, active = well fitted curve in the direction sought with a large enough effect; inconclusive = small, poorly fitted or top-dose-only effect, or another doubt; inactive = no such curve, though single readings can be large or run the other way.
reported_endpoint: outcome

molecule	reported_endpoint	obs_value
CC[N+](CC)(CC)CCOc1cccc(OCC[N+](CC)(CC)CC)c1OCC[N+](CC)(CC)CC	outcome	inactive
O=C(C1CCCCC1)N1CC(=O)N2CCc3ccccc3C2C1 (stereo not drawn)	outcome	inactive
OCCN1CCN(CCCN2c3ccccc3Sc3ccc(C(F)(F)F)cc32)CC1	outcome	inactive

From: PubChem BioAssay (NCATS)
